pKd values, listed per item
# test.target: DK66 DNA duplex
# method.description: Native ESI-MS, DK66
# Type: binding
# cond: 10 μM DNA, 20 μM ligand, 100 mM ammonium acetate; read-out: Kd2 DK66
pKd: −log10 of the molar value.
metric: pKd

> print(dat)
                                   compound  recorded.number
1  c1ccc(-[n+]2c3ccc4ccccc4c3cc3c4ccccc4ccc32)cc1 [DBA5]             3.93
2  COc1ccc2c(ccc3c2cc2c4ccc(OC)cc4ccc2[n+]3-c2ccc([N+](=O)[O-])cc2)c1 [DBA4]             3.51

* * *

# System: HeLa P4 cells
# method.description: Cell viability assay (CellTiter 96 AQueous One)
# Type: cell-based
# cond: HeLaP4, 24 h, 24 h treatment, formazan quantification; read-out: EC50 (cell viability)
pEC50: −log10 of the molar value.
Examples of compounds with documented pEC50 follow.
metric: pEC50

> print(dat)
                                   compound    test.target  metric  recorded.number
1  COC(=O)c1ccc(-[n+]2c3ccc4cc(OC)ccc4c3cc3c4ccc(OC)cc4ccc32)cc1 [DBA2]  HeLa P4 cells   pEC50             5.54
2  COc1ccc(-[n+]2c3ccc4cc(OC)ccc4c3cc3c4ccc(OC)cc4ccc32)cc1 [DBA3]  HeLa P4 cells   pEC50             5.37
3  c1ccc(-[n+]2c3ccc4ccccc4c3cc3c4ccccc4ccc32)cc1 [DBA5]  HeLa P4 cells   pEC50             4.78
4  COc1ccc2c(ccc3c2cc2c4ccc(OC)cc4ccc2[n+]3-c2ccccc2)c1 [DBA1]  HeLa P4 cells   pEC50             5.28

* * *

# Test system: HeLa P4 cells
# method.description: Cell viability assay (CellTiter 96 AQueous One)
# Assay type: cell-based
# cond: 24 h treatment, formazan quantification; read-out: EC50 (cell viability)
pEC50: −log10 of the molar value.
metric: pEC50

> print(dat)
                            compound.string    test.target  metric  result
1  c1ccc(-[n+]2c3ccc4ccccc4c3cc3c4ccccc4ccc32)cc1  HeLa P4 cells   pEC50   ~4.82

* * *

# test.target: Htel DNA G4 (human telomeric)
# method.description: Native ESI-MS, Htel
# Format: binding
# cond: 10 μM DNA, 20 μM ligand, 100 mM ammonium acetate; read-out: Kd1 Htel
# maps each entry to its log10 of Kd
metric: log10 of Kd (log10 of the value in µM)

> print(dat)
                            compound.string                    test.target       metric  recorded.number
1  COc1ccc2c(ccc3c2cc2c4ccc(OC)cc4ccc2[n+]3-c2ccccc2)c1  Htel DNA G4 (human telomeric)  log10 of Kd             2.70
2  COc1ccc2c(ccc3c2cc2c4ccc(OC)cc4ccc2[n+]3-c2ccc([N+](=O)[O-])cc2)c1  Htel DNA G4 (human telomeric)  log10 of Kd             1.05
3  COC(=O)c1ccc(-[n+]2c3ccc4cc(OC)ccc4c3cc3c4ccc(OC)cc4ccc32)cc1  Htel DNA G4 (human telomeric)  log10 of Kd             1.61
4  COc1ccc(-[n+]2c3ccc4cc(OC)ccc4c3cc3c4ccc(OC)cc4ccc32)cc1  Htel DNA G4 (human telomeric)  log10 of Kd             1.72
5  c1ccc(-[n+]2c3ccc4ccccc4c3cc3c4ccccc4ccc32)cc1  Htel DNA G4 (human telomeric)  log10 of Kd             1.16
